Please respond with reported reverse-splicing fitness for every item in the list.
B1: Azoarcus group I ribozyme (parent)
chain: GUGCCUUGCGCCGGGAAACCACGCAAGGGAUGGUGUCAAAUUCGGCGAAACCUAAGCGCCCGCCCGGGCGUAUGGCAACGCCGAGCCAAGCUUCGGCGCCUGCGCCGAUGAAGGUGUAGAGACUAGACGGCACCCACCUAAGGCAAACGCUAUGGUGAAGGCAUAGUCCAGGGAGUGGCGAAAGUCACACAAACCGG

- Variants of: B1
- assayProcedure: reverse-splicing fitness (ratio to wild type); higher = more active; in vitro selection; Mg2+ level not given
Answers are plain numbers.

Some entries whose results are on file:
In [3]: df
Out[3]:
                                 alteration           measurementkind  endpointvalue
0  C82A A111G A120G A145G C150G C169U U176G  reverse-splicing fitness        0.00793
1              C82G A111G C150U C169G U176A  reverse-splicing fitness         0.0165

Provide each entry's reverse-splicing fitness from the list below.
1. C82A A120G C150A C169A
2. A120U C150G U176G
3. C82G A120G A145C C150U U176G
4. C82G A111U A120C A145C C150G C169U
5. C82U A120C A145U C150U C169A U176A

### Response
0.011
0.0108
0.00485
0.00834
0.0108
